# Test system: NCI-H522 lung
# EXPERIMENT NOTES: NCI-60 one-dose screen, 48 h
# STUDY CONDITIONS: 10 µM unless noted
The panel holds about 83,000 compounds, 20% with a hit somewhere; the sample as a whole holds those more often. Calls of active or inactive are those of the source. The calls were made as follows: active = growth percent below 10; inactive = the rest.
Outcomes: 1 = active, -1 = inactive

smiles_representation=COc1cc(CNC(=O)Cc2ccccc2[N+](=O)[O-])ccc1OCC(=O)NO label_class=-1
smiles_representation=COc1cc2c3c(n(CCCN4CCC[C@H]4C(N)=O)c(=O)c2cc1OC)-c1cc2c(cc1C3=O)OCO2 label_class=-1
smiles_representation=O=C1c2c(c3c4ccc(Br)cc4oc3c3[nH]c4ccccc4c23)C(=O)N1CCO label_class=-1
smiles_representation=Cc1ccc(Cc2cnc(NC(=O)/C(C#N)=C/c3ccc(-c4ccc(Cl)cc4)o3)s2)cc1 label_class=-1
smiles_representation=Cc1csc(Nc2cccc(Nc3nc(C)cs3)c2)n1 label_class=-1
smiles_representation=IP(CCCSc1n(Cc2ccc3ccccc3c2)c(-c2ccccc2)c(-c2ccccc2)[n+]1Cc1ccc2ccccc2c1)(c1ccccc1)(c1ccccc1)c1ccccc1 label_class=1
smiles_representation=COc1ccc2c(c1)c(-c1nnc(N)nc1-c1cn(C)c3ccccc13)cn2C label_class=-1
smiles_representation=CSc1ccc(/C(=N/N=C(N)N)c2ccccc2)cc1 label_class=-1
smiles_representation=O=C(CN1CCN(c2cc(=O)n(-c3ccccc3)c3ccccc23)CC1)Nc1ccc([N+](=O)[O-])cc1 label_class=-1

---

# Tested on: BT-549 breast
# EXPERIMENT NOTES: NCI-60 one-dose screen, 48 h
# STUDY CONDITIONS: 10 µM unless noted
Compounds without any hit were thinned out: in the full panel of roughly 83,000, 20% have a hit. Activity calls are given as the source filed them. The calls were made as follows: active = growth percent below 10; inactive = the rest.
Possible outcomes: active, inactive

molecule=COc1cc2c3c(n(CCCN4CCCCC4)c(=O)c2cc1OC)-c1cc2c(cc1C3=O)OCO2 label_class=active
molecule=CC[C@H](C)[C@H]1NC(=O)[C@@H]([C@H](O)C(C)C)NC(=O)[C@@H](C)N(C)C(=O)[C@H](C)N(C)C(=O)[C@H](CC(C)C)NC(=O)[C@H](CC(C)C)N(C)C(=O)[C@H](C)N(C)C1=O label_class=active
molecule=Cc1ccc(Nc2ncnc3c2c(C)nn3-c2ccc([N+](=O)[O-])cc2)cc1 label_class=inactive
molecule=Cc1ccc(NC(=O)c2cc(/C=C/C(=O)NO)cc(C(F)(F)F)c2)cc1Nc1nccc(-c2cccnc2)n1 label_class=active
molecule=COc1ccc(N)cc1C(=O)Nc1cccc(-c2cc(=O)c3c(OC)c(OC)c(OC)cc3o2)c1 label_class=inactive
molecule=NS(=O)(=O)c1ccc(Nc2nc(N/N=C/c3ccc(F)cc3)nc(Nc3ccccc3)n2)cc1 label_class=inactive
molecule=O=C(NNc1nc2cc(F)c(F)cc2n2cccc12)c1ncccn1 label_class=inactive
molecule=Cc1cn(-c2cc(NC(=O)c3cncc(C#Cc4cnc5ccc(O[C@@H]6CCOC6)nn45)c3)cc(C(F)(F)F)c2)cn1 label_class=active
molecule=Cc1cnc2nc(NN)[nH]n12 label_class=inactive
molecule=COc1ccc(-c2nc3cc(Cl)c(Cl)cc3n2CC(=O)N=Nc2c(O)[nH]c3ccccc23)cc1 label_class=inactive
molecule=CC[C@@](C)(NC(=O)C(C)(C)NC(=O)[C@@H](NC(=O)[C@@H]1CCCN1C(=O)C(C)(C)NC(=O)[C@H](CC(C)C)NC(=O)CNC(=O)C(C)(C)NC(=O)[C@@H](NC(=O)C(C)(C)NC(=O)[C@H](CCC(N)=O)NC(=O)[C@H](C)NC(=O)C(C)(C)NC(=O)[C@H](C)NC(=O)C(C)(C)NC(=O)[C@H](C)NC(=O)C(C)(C)NC(C)=O)C(C)C)C(C)C)C(=O)N[C@@H](CCC(N)=O)C(=O)N[C@@H](CCC(N)=O)C(=O)N[C@H](CO)CC1CCCCC1 label_class=active
molecule="CC1CCc2c(sc3nc(SCC(=O)N/N=C/c4ccc(Cl)cc4)n(-c4ccccc4)c(=O)c23)C1 (stereo not given)" label_class=inactive
molecule=Oc1ccc(CSc2nnc(-c3ccncc3)o2)c2cccnc12 label_class=inactive
molecule=O=C(N/N=C\c1ccc(Cl)cc1)c1ccc2nc(-c3ccc(Br)cc3)[nH]c2c1 label_class=inactive
molecule=Cn1cc(-c2nn3cc(-c4ccncc4)nc3s2)c2cc(Cl)ccc21 label_class=inactive

---

# Test system: SF-295 CNS
# EXPERIMENT NOTES: NCI-60 one-dose screen, 48 h
# STUDY CONDITIONS: 10 µM unless noted
This is part of a sample that, as a whole, favours compounds with a hit. Of some 83,000 tested, about 20% had one in any assay. Active and inactive are the calls of the source. The calls were made as follows: active = growth percent below 10; inactive = the rest.
Labels: active, inactive

molecule=C#CCOc1ccc(/C=N/Nc2nc(-c3cc(Cl)ccc3Cl)cs2)cc1 assayed_target="SF-295 CNS" label_class=inactive
molecule=COc1cc(OC)c(S(N)(=O)=O)cc1C(=O)/C=C/c1ccccc1 assayed_target="SF-295 CNS" label_class=inactive
molecule=CC[C@@](C)(NC(=O)C(C)(C)NC(=O)[C@@H](NC(=O)[C@@H]1CCCN1C(=O)C(C)(C)NC(=O)[C@H](CC(C)C)NC(=O)CNC(=O)C(C)(C)NC(=O)[C@@H](NC(=O)C(C)(C)NC(=O)[C@H](CCC(N)=O)NC(=O)[C@H](C)NC(=O)C(C)(C)NC(=O)[C@H](C)NC(=O)C(C)(C)NC(=O)[C@@H]1CCCN1C(=O)C(C)(C)NC(C)=O)C(C)C)C(C)C)C(=O)N[C@@H](CCC(N)=O)C(=O)N[C@@H](CCC(N)=O)C(=O)N[C@H](CO)Cc1ccccc1 assayed_target="SF-295 CNS" label_class=inactive
molecule=CCc1ccc(NC(=O)N[C@@H](Cc2cccc(F)c2)C(=O)N[C@@H]2C(=O)N3CCC[C@H]3C(=O)N3CCCC[C@H]3C(=O)N[C@@H](CO)C(=O)N3C[C@H](C)C[C@H]3C(=O)O[C@H]2C)c(F)c1 assayed_target="SF-295 CNS" label_class=inactive
molecule=O=C(NNc1nc2cc(F)c(F)cc2n2cccc12)c1ncccn1 assayed_target="SF-295 CNS" label_class=inactive
molecule=Cc1cnc2nc(NN)[nH]n12 assayed_target="SF-295 CNS" label_class=inactive
molecule="CC(C)=CCC[C@](C)(O)[C@H]1CC[C@]2(C)[C@@H]1CC[C@@H]1[C@@]3(C)CCC(NC(=O)c4ccccc4C(=O)O)C(C)(C)[C@@H]3CC[C@]12C (some centres undefined)" assayed_target="SF-295 CNS" label_class=inactive
molecule=CS(=O)(=O)c1ccc(-c2nn(-c3ccccc3)cc2/C=N/NC(=O)c2ccncc2)cc1 assayed_target="SF-295 CNS" label_class=inactive
molecule=O=C1/C(=C/c2ccc([N+](=O)[O-])cc2)SC(=Nc2ccccc2)N1Nc1ccccc1 assayed_target="SF-295 CNS" label_class=inactive
molecule=CCN1CCN(c2cc(C(=O)Nc3nc4ccc(Oc5ccnc(C(=O)NC)c5)cc4s3)cc(C(F)(F)F)c2)CC1 assayed_target="SF-295 CNS" label_class=inactive
molecule=COc1ccc(/C=N/Nc2nc(Nc3ccccc3)nc(Nc3ccc(S(N)(=O)=O)cc3)n2)cc1 assayed_target="SF-295 CNS" label_class=inactive
molecule=O=C(NNc1nc2cc(F)cc(F)c2n2cccc12)c1ccncn1 assayed_target="SF-295 CNS" label_class=inactive
molecule=CN1CCN(Cc2ccc(NC(=O)c3cncc(C#Cc4cnc5ccc(NC6CCOCC6)nn45)c3)cc2C(F)(F)F)CC1 assayed_target="SF-295 CNS" label_class=active
molecule=C#C[C@]1(O)CC[C@H]2[C@@H]3CC=C4c5sc(Nc6ccc(OC)nc6)nc5CC[C@]4(C)[C@H]3CC[C@@]21C assayed_target="SF-295 CNS" label_class=active
molecule=CN1CCN(c2ccc3c(C(N)=O)c(NC(=O)c4ccc(C(C)(C)C)cc4)sc3c2)CC1 assayed_target="SF-295 CNS" label_class=inactive
molecule=CC(=O)c1sc(Nc2cccc(Nc3nc(C)c(C)s3)c2)nc1C assayed_target="SF-295 CNS" label_class=inactive
molecule=CSc1ccc(/C(=N/N=C(N)N)c2ccccc2)cc1 assayed_target="SF-295 CNS" label_class=active
molecule=C#C[C@]1(O)CC[C@H]2[C@@H]3CC=C4c5sc(Nc6cc(OC)ccc6OC)nc5CC[C@]4(C)[C@H]3CC[C@@]21C assayed_target="SF-295 CNS" label_class=active
molecule=Oc1ccc(CSc2nnc(-c3cnccn3)o2)c2cccnc12 assayed_target="SF-295 CNS" label_class=active
molecule=O=C(N/N=C\c1ccc(Cl)cc1)c1ccc2nc(-c3ccc(Br)cc3)[nH]c2c1 assayed_target="SF-295 CNS" label_class=active
molecule=CCOc1c(C#N)c(Nc2ccc(S(N)(=O)=O)cc2)c(C#N)c2nnc(C)n12 assayed_target="SF-295 CNS" label_class=inactive
molecule="COc1ccc(C2CC(c3ccc(Nc4nc(NCCO)nc(Nc5ccc(Cl)cc5)n4)cc3)=Nc3c(N)nc(N)nc3N2)cc1 (centres undefined)" assayed_target="SF-295 CNS" label_class=inactive
molecule=COc1cc2oc(-c3cccc(NC(=O)c4cc(NC(=O)[C@H](C)N)ccc4Cl)c3)cc(=O)c2c(OC)c1OC assayed_target="SF-295 CNS" label_class=inactive
molecule=CNC(=O)c1cc(N2CCc3cc(NC(=O)Nc4ccc(Cl)c(Cl)c4)ccc32)ccn1 assayed_target="SF-295 CNS" label_class=inactive
molecule=CN(c1ccc(Cl)cc1)S(=O)(=O)c1ccc(-c2cnc(C3CC3)o2)cc1 assayed_target="SF-295 CNS" label_class=inactive
molecule=Nc1nc(-c2cccc([N+](=O)[O-])c2)c(N=Nc2ccccc2Cl)s1 assayed_target="SF-295 CNS" label_class=inactive
molecule=CCN(CC)CCN1C(=O)c2c(c3c4cc(Br)ccc4[nH]c3c3ccc4ccccc4c23)C1=O assayed_target="SF-295 CNS" label_class=active
molecule="COc1ccc(C2C(C#N)=C(N)Oc3c2sc2ccc(C)cc32)cc1 (centres undefined)" assayed_target="SF-295 CNS" label_class=active
molecule=COc1ccccc1N1CCN(C2=NN=C(c3cccc(Cl)c3)c3ccccc3C2)CC1 assayed_target="SF-295 CNS" label_class=inactive
molecule=COc1cc2c3c(n(CCCNC4CCCCC4)c(=O)c2cc1OC)-c1cc2c(cc1C3=O)OCO2 assayed_target="SF-295 CNS" label_class=inactive
molecule=O=C(NCCCCCCNC(=O)c1c2c(nc3ccccc13)-c1cccnc1SC2)c1c2c(nc3ccccc13)-c1cccnc1SC2 assayed_target="SF-295 CNS" label_class=inactive
molecule=C=C(C)[C@@H]1CC[C@]2(C(=O)ON)CC[C@]3(C)[C@H](CC[C@@H]4[C@@]5(C)C/C(=C/c6ccc(Br)cc6)C(=O)C(C)(C)[C@@H]5CC[C@]43C)[C@@H]12 assayed_target="SF-295 CNS" label_class=inactive
molecule=N#Cc1c(-c2ccccc2)cc(-c2c[nH]c3ccccc23)nc1-c1c[nH]c2ccccc12 assayed_target="SF-295 CNS" label_class=inactive
molecule=O=C(Nc1ccc(F)cc1)c1cc(-c2ccc(F)cc2F)ccc1O assayed_target="SF-295 CNS" label_class=inactive

Reference source: PubChem BioAssay (NCI)
